Measured values drawn from the supplement of paper PMC6755084 for this set.

B1: minF1; a variant is named by its letters at N, in order (parent)
chain: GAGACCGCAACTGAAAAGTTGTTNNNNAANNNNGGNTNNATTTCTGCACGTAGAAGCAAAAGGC

# Variants of: B1
# experiment-description: fraction ligated after 30 min (ligated reads / total reads); higher = more ligase activity
# condition-notes: with F1*subA RNA substrate (template-directed ligation), 42 °C
reported-property: fraction ligated

INSERT INTO measurements (sequence_variant, test_result) VALUES
  ('ATCATGGAGTA A28G', 0.00253),
  ('TCAATGGTGTG T23A', 0.00466),
  ('CGAAGGAGTGA A29T', 0.00331),
  ('ATCGAGAGTGA', 0.00383),
  ('TCAGAGGTGTG', 0.00329),
  ('ATGATGAGTGA', 0.00204),
  ('ACAATGGTGTG', 0.00545),
  ('ACAGAGTGTGA', 0.00284),
  ('ACAGGATGTGA', 0.00342),
  ('TGAAGGTGTGA A29T', 0.00178),
  ('TCGAGGATTGA T23A', 0.00135),
  ('ACGATGGAGTT G34T T37G', 0.00155),
  ('TCAGATGGGTT T23A G34A T37G A40G', 0),
  ('ATCAAATAGTT A28G G34T T37G', 0.00135),
  ('ATAGATGGGTG G34T', 0.00668),
  ('TCGATGGATGA', 0.00257),
  ('ATCAGGATGTA A28G', 0.00247),
  ('TCAGAGGAGTG T23A', 0.0042),
  ('CAGAGATGTGA A29T', 0.00205),
  ('TAAAGGATTGA T23A A29T', 0.00317),
  ('ATCAATGGGTA A28G G34T', 0.00241),
  ('TCAGTGAGTGA T23A', 0.0046),
  ('TAAAGGATGTG A29T', 0.00445),
  ('ATGAGATGTGA A28T A29G', 0.016),
  ('ATAGAGTGTGA', 0.00554),
  ('TCGATGATTGA', 0.00257),
  ('CAGATGGAGTG T23A G34T', 0.0111),
  ('TCAGATGGGTG G34A', 0.00479),
  ('CGAAGATGTGA A29T', 0.00363),
  ('TAGAGGAGTGA A29T', 0.00156),
  ('TCAGGGTGTGA', 0.00203),
  ('ACAATGATTGA', 0.00348),
  ('ATAGATGGGTT G34T T37G', 0.00071),
  ('ATCAATATGTG', 0.00446),
  ('CAGAGGATGTG T23A', 0.00549),
  ('TAGATGGAGTG G34T', 0.0121),
  ('TAGAGGAGTGA', 0.00669),
  ('CAGAGGATGTA T23A A29T', 0.00576),
  ('TCAGTGGAGTT G34T T37G', 0.00084),
  ('TCGAGGATGTG T23A', 0.00538),
  ('TCAGAGATGTG T23A', 0.00606),
  ('TCAGGGATGTA A29T', 0.000605),
  ('AAGAGGATTGA A29T', 0.007),
  ('ATCGATGATGA', 0.00308),
  ('ACAATGATGTA', 0.00197),
  ('ATCGAGTGTGA', 0.00242);
